These data points were gathered from PubChem BioAssay (NCI).

# System: SR leukemia
# protocol-notes: NCI-60 one-dose screen, 48 h (100 = growth as untreated, 0 = no growth, -100 = all killed)
# particulars: 10 µM unless noted
The panel holds about 83,000 compounds, 20% with a hit somewhere; the sample as a whole holds those more often.
Response field label: string, one of t (growth strictly below 30%) or f.

Reference set (2 entries):
COC(=O)C1=C(C)NC(C)=C(C(=O)OC)C(N2C(=O)CCC2=O)C1 (centres undefined) ... f
COc1ccc(C2=C(c3cccc(OC)c3)C(=O)c3ccc(C)nc3C2=O)cc1 ... t

Okay, now this molecule:
## Task Bench note: check whether Cc1ccc(F)cc1NC(=O)c1cc(Cl)ccc1Nc1ccccc1 shows growth below 30%
## Result f
